- Test system: human Jurkat T cells
- Assay protocol: Growth inhibition of Jurkat T cells, trypan blue exclusion test
- Assay type: cell-based
- Test parameters: read-out: growth of Jurkat T cells inhibited by 50% (IC50), 48 hours, 37° C., trypan blue
Parameter measured: IC50 (µM)
API: value field is a number in µM; no unit string.

Form field: IC50 recorded for CCN1CCC(O)(/C=C/c2ccc(C)cc2)C(C(=O)/C=C/c2ccc(C)cc2)C1 (stereo not shown) with human Jurkat T cells (enter value) 3.46

====

Reported TIht (CEM cells) by item:
- Test system: CEM cells
- Assay protocol: Cytotoxicity, CEM human T-lymphocytes
- Test parameters: IC50 T-lymphocytes (CEM)/IC50 human tumors
Counter-ions that a name gives are not always drawn.
Please reply with the number alone, leaving off any unit.

Use these answered entries as a reference point.
INSERT INTO results (molecule, result_value) VALUES
  ('N[C@@H](Cc1ccc(N(CCCl)CCCl)cc1)C(=O)O [melphalan, reference compound]', 0.09),
  ('CCN1CCC(O)(c2ccc(OC)cc2)C(C(=O)c2ccc(OC)cc2)C1 (stereo not drawn) [Compound 11e]', 2.05),
  ('CCN1CCC(O)(/C=C/c2ccc(Cl)cc2)C(C(=O)/C=C/c2ccc(Cl)cc2)C1 (stereo not drawn) [Compound 9b, hydrochloride]', 0.78);

API: the following record is the query input.
# query: TIht (CEM cells) of entry "CCN(CC)CCC(=O)/C=C/c1ccccc1" 3.47

Where do the numbers come from? From patent US6017933A.
